From: patent US20250179094A1

Endpoint: log10 of IC50. System: human TGFβR1 (Homo sapiens (Human), UniProt P36897). Items follow.
Sequence (P36897 34-503): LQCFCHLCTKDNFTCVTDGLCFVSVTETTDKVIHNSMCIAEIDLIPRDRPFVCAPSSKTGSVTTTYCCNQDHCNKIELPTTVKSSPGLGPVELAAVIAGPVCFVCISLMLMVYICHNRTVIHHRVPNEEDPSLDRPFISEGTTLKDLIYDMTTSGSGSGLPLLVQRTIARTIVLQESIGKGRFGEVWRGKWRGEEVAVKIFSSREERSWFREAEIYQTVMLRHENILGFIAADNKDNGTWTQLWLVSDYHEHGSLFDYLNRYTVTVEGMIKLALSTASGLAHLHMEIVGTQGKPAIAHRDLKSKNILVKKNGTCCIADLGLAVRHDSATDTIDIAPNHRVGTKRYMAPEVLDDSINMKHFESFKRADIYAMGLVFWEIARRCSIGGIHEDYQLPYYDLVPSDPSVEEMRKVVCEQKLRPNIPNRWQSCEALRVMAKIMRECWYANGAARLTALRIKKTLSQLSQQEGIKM
REPORTED ENDPOINT: log10 of IC50 (log10 of the value in nM)

1) CNC(=O)N1Cc2nc(-c3cc(-c4c(-c5cccc(C)n5)nc5n4CCC5)ccn3)[nH]c2C1 [Compound 28]    1.28
2) Cc1cccc(-c2nn(Cc3ccncc3)cc2-c2ccnc(-c3nc4c([nH]3)CN(S(C)(=O)=O)C4)c2)n1 [Compound 55]    0.70
3) Cc1cccc(-c2nc3n(c2-c2ccnc(-c4nc5c([nH]4)CN(C(=O)N(C)C)C5)c2)CCC3)n1 [Compound 29]    -0.74
4) Cc1cccc(-c2n[nH]cc2-c2ccnc(-c3nc4c([nH]3)CN(C(=O)N(C)C)C4)c2)n1 [Compound 59]    0.96
5) Cc1cccc(-c2nn(C)cc2-c2ccnc(-c3nc4c([nH]3)CN(C(=O)C3CC(O)C3)C4)c2)n1 (stereo not shown) [Compound 42]    1.43
6) CCS(=O)(=O)N1Cc2nc(-c3cc(-c4c(-c5cccc(C)n5)nn5c4CCC5)ccn3)[nH]c2C1 [Compound 68]    0.91
7) Cc1cccc(-c2nc3n(c2-c2ccnc(-c4nc5c([nH]4)CN(S(C)(=O)=O)C5)c2)CCC3)n1 [Compound 9]    0.73
